The reported numbers originate from patent US9181258B2.

Recorded below: pIC50, system human PIM2 (Homo sapiens (Human), UniProt Q9P1W9).
pIC50: −log10 of the molar value. Where a name gives a salt, the structure may show the parent alone.

molecule	pIC50
CN(C)Cc1ccc(-c2c(-c3cccc(OC(F)(F)F)c3)cc3n2C(CCO)CNC3=O)cc1 (centres unmarked) [Compound 83, trifluoroacetate]	7.42
NC(=O)c1ccc(-c2c(-c3cccc(OC(F)(F)F)c3)cc3n2C(CCO)CNC3=O)cc1 (centres unmarked)	7.24
NCCC1CNC(=O)c2cc(-c3cc(Cl)ccc3F)c(-c3ccccc3)n21 (centres unmarked) [Compound 57, hydrochloride]	7.49
O=C1NCC(CCO)n2c1cc(-c1cccc(OC(F)(F)F)c1)c2-c1ccc(CO)cc1 (centres unmarked)	7.05
NCC[C@H]1CNC(=O)c2cc(-c3cccc(OC(F)(F)F)c3)c(-c3ccc4ccccc4c3)n21 [Compound 118, hydrochloride]	6.82
NCCC1CNC(=O)c2cc(-c3cccc(OC(F)(F)F)c3)c(-c3ccccc3)n21 (centres unmarked) [Compound 28, hydrochloride]	7.26
CN1CCC(NC(=O)c2ccc(-c3c(-c4cccc(OC(F)(F)F)c4)cc4n3C(CCO)CNC4=O)cc2)CC1 (centres unmarked) [Compound 81, trifluoroacetate]	7.16
NCC[C@H]1CNC(=O)c2cc(-c3cccc(OC(F)(F)F)c3)c(-c3ccc(CN4CCOCC4)cc3)n21 [Compound 99, hydrochloride]	8.15
CSc1ccc(-c2c(-c3cccc(OC(F)(F)F)c3)cc3n2[C@@H](CCN)CNC3=O)cc1 [Compound 123, hydrochloride]	7.35
NCCC1CNC(=O)c2cc(-c3cccc(OC(F)(F)F)c3)c(-c3cccc(N)c3)n21 (centres unmarked) [Compound 32, hydrochloride]	7.16
NCC[C@H]1CNC(=O)c2cc(-c3cccc(OC(F)(F)F)c3)c(-c3ccc(F)cc3)n21 [Compound 94, hydrochloride]	7.57
CC(=O)NCC[C@H]1CNC(=O)c2cc(-c3cccc(OC(F)(F)F)c3)c(-c3ccccc3)n21	6.76
NCC[C@H]1CNC(=O)c2cc(-c3cccc(OC(F)(F)F)c3)c(-c3cccc(C(F)(F)F)c3)n21 [Compound 125, hydrochloride]	7.01
CN(C)C(=O)c1ccc(-c2c(-c3cccc(OC(F)(F)F)c3)cc3n2C(CCO)CNC3=O)cc1 (centres unmarked)	7.03
COc1c(C)cc(-c2c(-c3cccc(OC(F)(F)F)c3)cc3n2[C@@H](CCN)CNC3=O)cc1C [Compound 128, hydrochloride]	7.49
CC(C)(C)c1ccc(-c2c(-c3cccc(OC(F)(F)F)c3)cc3n2[C@@H](CCN)CNC3=O)cc1 [Compound 124, hydrochloride]	6.80
CNC(=O)c1ccc(-c2c(-c3cccc(OC(F)(F)F)c3)cc3n2C(CCO)CNC3=O)cc1 (centres unmarked)	7.12
CN1CCN(Cc2ccc(-c3c(-c4cccc(OC(F)(F)F)c4)cc4n3C(CCCl)CNC4=O)cc2)CC1 (centres unmarked) [Compound 71, trifluoroacetate]	7.36
NCCC1CNC(=O)c2cc(-c3cccc(OC(F)(F)F)c3)c(-c3ccc(CO)cc3)n21 (centres unmarked) [Compound 33, hydrochloride]	7.82
CCOc1ccc(-c2c(-c3cccc(OC(F)(F)F)c3)cc3n2[C@@H](CCN)CNC3=O)cc1F [Compound 127, hydrochloride]	7.62
Cc1cccc(-c2c(-c3cccc(OC(F)(F)F)c3)cc3n2[C@@H](CCNC(=N)N)CNC3=O)c1 [Compound 148, hydrochloride]	7.92
CN1CCN(Cc2ccc(-c3c(-c4cccc(OC(F)(F)F)c4)cc4n3C(CCO)CNC4=O)cc2)CC1 (centres unmarked) [Compound 82, trifluoroacetate]	7.46
CN(C)Cc1ccc(-c2c(-c3cccc(OC(F)(F)F)c3)cc3n2[C@@H](CCN)CNC3=O)cc1 [Compound 101, hydrochloride]	8.05
